Provenance of the data: paper PMC3958311

test system: M. tuberculosis H37Rv; test: MIC by resazurin reduction microplate assay (REMA); type: cell-based, Mycobacterium tuberculosis; settings: Mycobacterium tuberculosis; Table S1; M. tuberculosis H37Rv; read-out: MIC
OUTCOME_MEASURE: MIC

>>> val("O=c1nc(N2CCN(CCC3CCCCC3)CC2)sc2c([N+](=O)[O-])cc(C(F)(F)F)cc12")
"0.19 ng/mL"
>>> val("CCCCCCCN1CCN(c2nc(=O)c3cc(C(F)(F)F)cc([N+](=O)[O-])c3s2)CC1")
"0.19 ng/mL"
>>> val("O=c1nc(N2CCN(CCCCc3ccccc3)CC2)sc2c([N+](=O)[O-])cc(C(F)(F)F)cc12")
"0.37 ng/mL"

Turning now to a further record.
Which MIC is reported for this compound? O=c1nc(N2CCN(CCCCOc3ccccc3)CC2)sc2c([N+](=O)[O-])cc(C(F)(F)F)cc12 1.5 ng/mL

###

Reported microsomal CLint by item:
assay: in vitro; settings: human, microsomes
Express the result in µL/min/mg but write the number alone.

>>> val("NC(=O)N1c2ccccc2C=Cc2ccccc21 [Carbamazepine]")
0.5
>>> val("O=c1nc(N2CCN(CC3CCCCC3)CC2)sc2c([N+](=O)[O-])cc(C(F)(F)F)cc12")
24.8

Turning now to a further record.
Which microsomal CLint is reported for this molecule? C[C@H]1COC2(CCN(c3nc(=O)c4cc(C(F)(F)F)cc([N+](=O)[O-])c4s3)CC2)O1 16
